Experiment: WHO-TDR: Cytotoxicity
Assay type: toxicity, cell-based
Conditions: human, MRC5 cells
PROPERTY NAME: IC50

Solved entries:
1. COc1cccc(NC(=O)NCCNc2ccc(Nc3cccc(C)n3)nn2)c1 ... > 11.8 µg/mL
2. CCOC(=O)c1ccc(NC(=O)CC2CCCCN2S(=O)(=O)c2ccc(OC)cc2)cc1 (stereo not given) ... 2.03 µg/mL
3. Cc1ccc(C)c2sc(N(CCCn3ccnc3)C(=O)COc3ccccc3)nc12 ... 5.31 µg/mL
4. COc1cccc(C(=O)Nc2ccc(C)cc2C(=O)c2ccccc2)c1OC ... > 11.3 µg/mL
5. O=C(NCCn1nc(-c2ccco2)ccc1=O)C1c2ccccc2Oc2ccccc21 ... > 12.4 µg/mL

Below is a list of molecules. For each, state its recorded IC50.
1. O=C(Nc1nc2c(F)cc(F)cc2s1)c1nc2ccccc2s1
2. O=S(=O)(CCCOc1ccc(F)cc1)NCc1ccccc1Cl
3. COc1ccc(C(CNS(=O)(=O)c2ccc(Cl)s2)N2CCOCC2)cc1 (stereo not given)
4. O=C(CSc1nnc(NC(=O)C23CC4CC(CC(C4)C2)C3)s1)Nc1nccs1
5. CCOC(=O)N1CCC(NC(=O)CCc2csc(NC(=O)c3ccccc3)n2)CC1

Out:
1: > 10.4 µg/mL; 2: > 10.7 µg/mL; 3: > 12.5 µg/mL; 4: > 13.1 µg/mL; 5: 4.08 µg/mL

---

Test: WHO-TDR: Cytotoxicity
Assay type: toxicity, cell-based
Conditions: human, MRC5 cells
Give measured IC50 for each item. Keep answers brief.

Observe how each entry below is paired with its result.
1. CC(C)c1ccc(Nc2ncnc3[nH]ncc23)cc1 ... > 7.6 µg/mL
2. COc1ccc(OC)c2sc(N(CC3CCCO3)C(=O)c3ccn(C)n3)nc12 (configuration not stated) ... > 12.1 µg/mL
3. O=C(NCC(c1ccco1)N1CCN(c2ccc(F)cc2)CC1)OCc1ccccc1 (configuration not stated) ... > 12.7 µg/mL
4. O=C(COc1ccc(Cl)cc1Cl)N(Cc1ccccn1)c1nc2ccccc2s1 ... > 13.3 µg/mL
5. O=C(Nc1onc2c1CCC2)c1cccc(F)c1 ... 4.88 µg/mL
6. CCN(CC)c1cc(C)nc(Nc2ccc(NC(=O)c3cc4ccccc4oc3=O)cc2)n1 ... > 13.3 µg/mL
7. CCn1/c(=N\C(=O)c2ccc(C(C)=O)cc2)sc2cc(C)ccc21 ... > 10.2 µg/mL
8. Cc1ccc(C(=O)Nc2nnc(Cc3cccs3)o2)cc1C ... > 9.4 µg/mL

State the recorded IC50 for every item in the following list.
1. Cc1ccc2sc(N(Cc3cccnc3)C(=O)CSc3ccccc3)nc2c1C
2. CS(=O)(=O)N1CCCCC1C(=O)Nc1nc(-c2ccc(F)cc2)cs1 (configuration not stated)
3. Cc1cccc2sc(NC(=O)CCc3csc(NC(=O)c4ccco4)n3)nc12

Out:
1. > 12.6 µg/mL
2. > 11.5 µg/mL
3. > 12.4 µg/mL

---

System: Onchocerca lienalis
Assay: WHO-TDR: Onchocerciasis
Type: functional
Design: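 at 12.5 µM on microfilariae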
PROPERTY NAME: % Inhibition (%)
Give bare numbers, in %.

Reference set (5 entries):
1. CCN(C1CCCCC1)S(=O)(=O)c1ccc(C(=O)Nc2nc(-c3ccccn3)cs2)cc1 ... 80
2. CS(=O)(=O)c1ccc(CC(=O)Nc2nc(-c3ccc(Cl)s3)cs2)cc1 ... 11.35
3. O=S(=O)(NCC(c1cccnc1)N1CCN(c2ccccc2F)CC1)c1cc(F)ccc1F (stereo unspecified) ... 0
4. CCN(CC)c1cc(C)nc(Nc2ccc(NC(=O)c3c(F)cccc3F)cc2)n1 ... -1
5. COc1cc(OC)cc(C(=O)N(CCCN(C)C)c2nc3c(C)c(C)ccc3s2)c1 ... 0

# return % Inhibition for each item in the list
1. O=C(CSc1nnc(NC(=O)C2CCCCC2)s1)Nc1ccccc1C(F)(F)F
2. CN(C)CCCN(C(=O)c1ccc(N(C)C)cc1)c1nc2ccc(F)cc2s1
3. O=C(CSc1ccc2nnc(-c3ccccn3)n2n1)NCC1CCCO1 (stereo unspecified)

Out:
1. 0
2. 0
3. 0
